EXPERIMENTAL SYSTEM: Phosphatidylinositol 4,5-bisphosphate 3-kinase catalytic subunit delta isoform (Homo sapiens)
Sequence (O00329 whole entry, canonical isoform): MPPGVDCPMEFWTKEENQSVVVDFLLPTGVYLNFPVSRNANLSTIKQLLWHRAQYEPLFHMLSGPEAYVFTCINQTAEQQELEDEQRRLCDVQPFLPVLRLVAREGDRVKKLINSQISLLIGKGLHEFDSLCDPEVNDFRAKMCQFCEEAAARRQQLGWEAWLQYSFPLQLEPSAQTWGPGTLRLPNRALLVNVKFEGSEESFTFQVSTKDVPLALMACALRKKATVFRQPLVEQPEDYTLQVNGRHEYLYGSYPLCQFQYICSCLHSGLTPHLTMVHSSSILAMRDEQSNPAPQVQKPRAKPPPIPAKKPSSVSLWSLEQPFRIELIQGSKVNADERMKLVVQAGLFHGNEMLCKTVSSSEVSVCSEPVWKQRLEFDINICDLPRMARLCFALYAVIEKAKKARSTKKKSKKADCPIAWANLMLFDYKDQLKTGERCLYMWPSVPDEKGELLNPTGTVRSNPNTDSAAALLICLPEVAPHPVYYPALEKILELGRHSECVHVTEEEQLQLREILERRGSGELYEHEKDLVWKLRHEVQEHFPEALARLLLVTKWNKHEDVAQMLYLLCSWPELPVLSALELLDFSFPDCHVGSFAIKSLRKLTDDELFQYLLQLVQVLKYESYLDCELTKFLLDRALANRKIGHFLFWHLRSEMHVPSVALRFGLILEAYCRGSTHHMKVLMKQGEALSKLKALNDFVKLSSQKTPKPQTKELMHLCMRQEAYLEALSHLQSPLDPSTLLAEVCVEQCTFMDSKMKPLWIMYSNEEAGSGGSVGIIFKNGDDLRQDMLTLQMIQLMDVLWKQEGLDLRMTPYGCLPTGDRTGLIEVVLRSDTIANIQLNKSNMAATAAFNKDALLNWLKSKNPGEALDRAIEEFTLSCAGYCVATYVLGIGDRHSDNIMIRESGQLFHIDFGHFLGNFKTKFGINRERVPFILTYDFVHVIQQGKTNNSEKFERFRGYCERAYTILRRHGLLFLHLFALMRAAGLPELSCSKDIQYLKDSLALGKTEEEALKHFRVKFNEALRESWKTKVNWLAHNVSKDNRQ
Exercise: state measured Ki for each of the compounds provided.
Numbers only, in nM.

CN(C)C1CCN(Cc2cc3nc(-c4cccc5[nH]ccc45)nc(N4CCOCC4)c3s2)CC1	4.9

For each listed entry, give its Ki.
1. CCOC(=O)CCNC(=O)Nc1nc2c(s1)CN(c1cnc(Cl)c(OC)c1)CC2
2. CC(=O)NCCNS(=O)(=O)c1ccc(-c2sc(NC(C)=O)nc2C)o1
3. C[C@H](Nc1ncnc(N)c1C#N)c1nc2ccc(F)cc2c(NCCS(C)(=O)=O)c1-c1ccccc1
4. CCN(CC)C(=O)c1cccc(Nc2nc3ccc(-c4cncc(OC)c4)cc3s2)n1
5. Cc1c(-c2ccccn2)nc2cc(F)cc(F)c2c1Nc1cc(N2CCOCC2)cnc1-c1ccc(O)cc1
6. CCNC(=O)Nc1nc2ccc(-c3cncc(C(F)(F)F)c3)cc2s1

RESULT:
3
100
2.26
3
2.85
10

###

EXPERIMENTAL SYSTEM: Phosphatidylinositol 4,5-bisphosphate 3-kinase catalytic subunit delta isoform (Homo sapiens)
CONDITIONS USED: read-out: IC50
Lab note: anything with IC50 below 10 nM is marked true (1); values at 10 nM or higher are marked false (0).

# example entries with known answers
O=C(Nc1nn[nH]n1)c1cnc(N2CCOCC2)nc1OC1CCCCCC1	false (0)
COc1cc2c(CC3CCCC(C)C3)c(C(=O)Nc3nn[nH]n3)sc2cc1C (configuration not stated)	true (1)
C[C@@H](c1nc2ccsc2c(=O)n1-c1ccccc1)n1cnc2c(N)ncnc21	false (0)
Nc1ncc(-c2ccc(Cl)c(S(=O)(=O)Nc3ccccc3)c2)nc1C(=O)c1cccnc1	false (0)

QUERY: # check: IC50 < 10 nM for CC(=O)Nc1nc(C)c(-c2csc(C(=O)Nc3nnn[nH]3)n2)s1
RESULT: false (0)

###

EXPERIMENTAL SYSTEM: Phosphatidylinositol 4,5-bisphosphate 3-kinase catalytic subunit delta isoform (Mus musculus)
Sequence (O35904 whole entry): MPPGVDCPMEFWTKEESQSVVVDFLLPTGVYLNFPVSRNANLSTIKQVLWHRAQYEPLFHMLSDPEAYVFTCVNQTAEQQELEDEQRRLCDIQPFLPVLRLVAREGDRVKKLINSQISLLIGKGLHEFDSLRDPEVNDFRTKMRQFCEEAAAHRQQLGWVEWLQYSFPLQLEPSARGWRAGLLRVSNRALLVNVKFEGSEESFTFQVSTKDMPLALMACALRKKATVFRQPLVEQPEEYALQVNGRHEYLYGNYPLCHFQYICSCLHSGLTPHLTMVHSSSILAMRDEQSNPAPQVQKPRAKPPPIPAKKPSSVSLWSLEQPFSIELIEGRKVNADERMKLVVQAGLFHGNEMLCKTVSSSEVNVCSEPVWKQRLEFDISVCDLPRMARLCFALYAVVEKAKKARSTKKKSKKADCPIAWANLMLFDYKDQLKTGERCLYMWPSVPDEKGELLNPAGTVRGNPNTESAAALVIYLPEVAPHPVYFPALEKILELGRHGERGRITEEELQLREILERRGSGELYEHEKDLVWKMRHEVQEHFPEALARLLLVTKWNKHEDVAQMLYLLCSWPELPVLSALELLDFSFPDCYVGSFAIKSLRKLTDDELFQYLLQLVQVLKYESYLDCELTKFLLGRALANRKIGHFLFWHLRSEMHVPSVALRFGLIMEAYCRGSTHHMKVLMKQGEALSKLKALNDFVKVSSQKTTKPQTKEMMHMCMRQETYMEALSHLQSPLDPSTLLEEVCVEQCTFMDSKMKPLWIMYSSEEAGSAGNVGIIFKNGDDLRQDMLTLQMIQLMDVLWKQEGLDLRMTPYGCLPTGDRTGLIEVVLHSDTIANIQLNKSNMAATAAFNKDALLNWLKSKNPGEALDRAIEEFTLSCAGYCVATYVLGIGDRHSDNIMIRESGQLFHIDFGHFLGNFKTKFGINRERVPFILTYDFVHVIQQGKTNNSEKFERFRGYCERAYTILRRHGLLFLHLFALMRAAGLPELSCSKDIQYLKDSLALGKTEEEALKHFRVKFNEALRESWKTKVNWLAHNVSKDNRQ
ASSAY DETAILS: Inhibition of PI3Kdelta-mediated AKT phosphorylation in mouse Raw 264.7 cells by immunoassay
MEASURED QUANTITY: IC50

Per the record, O=C1NC(=O)/C(=C/c2ccc3ncnc(N4CCC(C(F)(F)F)CC4)c3n2)S1 has IC50 of < 10 nM

// data source = ChEMBL document CHEMBL2216751
